STUDY TARGET: full length AKT E17K (Homo sapiens, UniProt P31749, E17K)
Construct: host or cells: HEK-293 (ATCC CRL-1573)
Sequence (P31749 whole entry E17K): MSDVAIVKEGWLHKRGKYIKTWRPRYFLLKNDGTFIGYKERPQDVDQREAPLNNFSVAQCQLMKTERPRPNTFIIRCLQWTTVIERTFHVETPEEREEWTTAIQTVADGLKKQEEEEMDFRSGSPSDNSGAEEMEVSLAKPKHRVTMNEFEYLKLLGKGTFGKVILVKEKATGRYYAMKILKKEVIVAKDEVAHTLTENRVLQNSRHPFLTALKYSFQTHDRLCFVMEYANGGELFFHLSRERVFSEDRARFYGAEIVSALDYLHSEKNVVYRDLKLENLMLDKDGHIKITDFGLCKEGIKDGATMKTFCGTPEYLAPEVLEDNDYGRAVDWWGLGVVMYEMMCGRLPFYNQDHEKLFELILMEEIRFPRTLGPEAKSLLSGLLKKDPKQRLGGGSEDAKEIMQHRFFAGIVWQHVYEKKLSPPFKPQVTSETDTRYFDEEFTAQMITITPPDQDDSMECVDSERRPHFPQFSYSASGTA
TEST NAME: NanoBRET Target Engagement (TE) Assay
Assay type: cell-based
CONDITION DESCRIPTION: competitive tracer displacement in living cells, read-out: AKT1 E17K IC50
MEASUREMENT TYPE: IC50

Use the examples below as a reference point.
[2H]C([2H])([2H])N(c1ncnc(C#N)n1)C1CCN(Cc2ccc(-n3c(-c4cccnc4N)nc4ccc(-c5ccccc5)nc43)cc2)CC1 [Example 233] | 15 to 60 nM
C[C@H]1CN(Cc2ccc(-n3c(-c4cccnc4N)nc4ccc(-c5ccccc5)nc43)cc2)CCN1c1cc(C#N)ncn1 [Example 208] | 60 to 600 nM
N#Cc1cncc(N2CCN(Cc3ccc(-n4c(-c5cccnc5N)nc5ccc(-c6ccccc6)nc54)cc3)CC2)c1 [Example 65] | 60 to 600 nM
N#Cc1nccc(N2CCN(Cc3ccc(-n4c(-c5cccnc5N)nc5ccc(-c6cccc(=O)[nH]6)nc54)cc3)CC2)n1 [Example 238] | 15 to 60 nM
N#Cc1ccnc(NCc2ccc(-n3c(-c4cccnc4N)nc4cccnc43)cc2)c1 [Example 132] | 600 to 10000 nM
N#Cc1nccnc1C(=O)N1CCN(Cc2ccc(-n3c(-c4cccnc4N)nc4ccc(-c5ccccc5)nc43)cc2)CC1 [Example 163] | 60 to 600 nM

Proceed to the following item.
Entry N#Cc1nc2cc(F)cc(C(=O)N3CCN(Cc4ccc(-n5c(-c6cccnc6N)nc6ccc(-c7ccccc7)nc65)cc4)CC3)c2s1 [Example 180] , IC50 reported as 15 to 60 nM
